So I've got a bunch of compounds here, and I need their Euclidean distance values.
Tested on: FB
Test: Euclidean distance of Cell Painting phenotypic profile (signed KS, 77 features) to DMSO centroid (dimensionless distance); 5 or 10 uM (library dependent); higher = stronger phenotypic change vs DMSO (phenoactivity)
Conditions: 48 h
Counter-ions that a name gives are not always drawn.
Please reply with the number alone, leaving off any unit.

Give the measured Euclidean distance for CC(=O)O[C@]1(C(C)=O)CC[C@H]2[C@@H]3C[C@H](C)C4=CC(=O)CC[C@]4(C)[C@H]3CC[C@@]21C [Medroxyprogesterone acetate] 1.31

Give the measured Euclidean distance for NC(=O)c1ccc(N(C(N)=O)c2c(F)cccc2F)nc1-c1ccc(F)cc1F 1.37

Give the measured Euclidean distance for CC(C)(C(=O)O)c1ccc(C(O)CCCN2CCC(C(O)(c3ccccc3)c3ccccc3)CC2)cc1 (centres undefined) [Fexofenadine HCl] 0.629

Give the measured Euclidean distance for Cn1cc(/C=C2\C(=O)Nc3cccnc32)c2ccccc21 1.5

----------
Tested on: HEPG2
Assay: Euclidean distance of Cell Painting phenotypic profile (signed KS, 77 features) to DMSO centroid (dimensionless distance); 5 or 10 uM (library dependent); higher = stronger phenotypic change vs DMSO (phenoactivity)
Details: 48 h
Structures can show the parent of a compound that is named as a salt.
measured-property: Euclidean distance
Please reply with the number alone, leaving off any unit.

Give the measured Euclidean distance for C[C@@H]1CCC[C@H](C)N1NC(=O)c1ccc(Cl)c(S(N)(=O)=O)c1 [Clopamide] 0.528

Give the measured Euclidean distance for N=C1CCCN1Cc1[nH]c(=O)[nH]c(=O)c1Cl [Tipiracil hydrochloride] 0.343

Give the measured Euclidean distance for CCCCCOc1ccc(-c2cc(-c3ccc(C(=O)N[C@H]4C[C@@H](O)[C@@H](O)NC(=O)[C@@H]5[C@@H](O)[C@@H](C)CN5C(=O)[C@H]([C@H](O)CC(N)=O)NC(=O)[C@H]([C@H](O)[C@@H](O)c5ccc(O)c(OS(=O)(=O)O)c5)NC(=O)[C@@H]5C[C@@H](O)CN5C(=O)[C@H]([C@@H](C)O)NC4=O)cc3)no2)cc1 [Micafungin Sodium] 1.15

Give the measured Euclidean distance for CNCc1cc(-c2ccccc2F)n(S(=O)(=O)c2cccnc2)c1 [Vonoprazan Fumarate (TAK-438)] 0.474

Give the measured Euclidean distance for CC(=O)NS(=O)(=O)c1ccc(N)cc1 [Sulfacetamide] 0.298

Give the measured Euclidean distance for COCCCOc1ccnc(C[S+]([O-])c2nc3ccccc3[nH]2)c1C (stereo unspecified) 1.49

Give the measured Euclidean distance for OCC(CO)N[C@H]1C[C@](O)(CO)[C@@H](O)[C@H](O)[C@H]1O 1.06

Give the measured Euclidean distance for NNc1nncc2ccccc12 [Hydralazine HCl] 0.411

Give the measured Euclidean distance for COc1ccccc1N1CCN(CCN(C(=O)C2CCCCC2)c2ccccn2)CC1 2.11

Give the measured Euclidean distance for CC(C)Oc1ccc(-c2nc(-c3cccc4c3CC[C@@H]4NCCO)no2)cc1C#N [Ozanimod (RPC1063)] 1.46

Give the measured Euclidean distance for NC(=O)c1cn(Cc2c(F)cccc2F)nn1 [Rufinamide] 0.473

Give the measured Euclidean distance for COc1ccc(COc2ccc(Cc3cnc(N)nc3N)cc2OC)cc1 2.08

Give the measured Euclidean distance for N[C@H](Cc1ccccc1)C(=O)O 0.733

Give the measured Euclidean distance for CN[C@H]1CN(c2ccc3c(=O)c(C(=O)O)cn(-c4nccs4)c3n2)C[C@@H]1OC [Voreloxin (SNS-595) hydrochloride] 2.43

Give the measured Euclidean distance for NC(=O)N1CCC(CC(=O)N2CCC([C@H]3c4ncc(Br)cc4CCc4cc(Cl)cc(Br)c43)CC2)CC1 1.1

Give the measured Euclidean distance for CS(=O)(=O)n1cc2c(n1)CN([C@H]1CO[C@H](c3cc(F)ccc3F)[C@@H](N)C1)C2 2.25

----------
So I've got a bunch of compounds here, and I need their Euclidean distance values.
Test system: 786-O
Assay: Euclidean distance of Cell Painting phenotypic profile (signed KS, 77 features) to DMSO centroid (dimensionless distance); 5 or 10 uM (library dependent); higher = stronger phenotypic change vs DMSO (phenoactivity)
Settings: 48 h
Where a name gives a salt, the structure may show the parent alone.
Please reply with the number alone, leaving off any unit.

Give the measured Euclidean distance for COc1cc(C(=O)O)ccc1NC(=O)[C@@H]1N[C@@H](CC(C)(C)C)[C@](C#N)(c2ccc(Cl)cc2F)[C@H]1c1cccc(Cl)c1F [Idasanutlin (RG-7388)] 1.61

Give the measured Euclidean distance for COC(=O)N[C@H](C(=O)N[C@@H](Cc1ccccc1)[C@@H](O)CN(Cc1ccc(-c2ccccn2)cc1)NC(=O)[C@@H](NC(=O)OC)C(C)(C)C)C(C)(C)C [Atazanavir Sulfate] 1.01

Give the measured Euclidean distance for CCN(CC)Cc1cc(Nc2ccnc3cc(Cl)ccc23)ccc1O [Amodiaquine hydrochloride] 2.94

----------
System: FB
Assay: Euclidean distance of Cell Painting phenotypic profile (signed KS, 77 features) to DMSO centroid (dimensionless distance); 5 or 10 uM (library dependent); higher = stronger phenotypic change vs DMSO (phenoactivity)
Conditions: 48 h
Structures can show the parent of a compound that is named as a salt.
So I've got a bunch of molecules here, and I need their Euclidean distance values.
Please reply with the number alone, leaving off any unit.

State Euclidean distance (FB) of O=c1ncccn1[C@@H]1O[C@H](CO)[C@@H](O)[C@H]1O [Zebularine] . 0.816

State Euclidean distance (FB) of c1ccc(C2CN3CCSC3=N2)cc1 (single isomer, unassigned; (-)) [(-)-Tetramisole] . 0.965

State Euclidean distance (FB) of O=C1c2ccccc2C(=O)C1c1ccccc1 [Phenindione] . 1.16

State Euclidean distance (FB) of COc1cc(Nc2nc3ccccc3nc2NS(=O)(=O)c2ccc(NC(=O)c3ccc(C)c(OC)c3)cc2)cc(OC)c1 . 0.743

State Euclidean distance (FB) of Nc1ncccc1-c1nc2ccc(-c3ccccc3)nc2n1-c1ccc(C2(N)CCC2)cc1 [Miransertib (ARQ 092) HCl] . 4.17

----------
So I've got a bunch of molecules here, and I need their Euclidean distance values.
Tested on: A549
Assay: Euclidean distance of Cell Painting phenotypic profile (signed KS, 77 features) to DMSO centroid (dimensionless distance); 5 or 10 uM (library dependent); higher = stronger phenotypic change vs DMSO (phenoactivity)
Details: 48 h

Give the measured Euclidean distance for Cc1ccccc1C(=O)Nc1ccc(C(=O)N2CCCC(N(C)C)c3ccccc32)cc1 (centres undefined) [Mozavaptan] 0.928

Give the measured Euclidean distance for NC(=O)c1ccc(N(C(N)=O)c2c(F)cccc2F)nc1-c1ccc(F)cc1F 1.16

Give the measured Euclidean distance for O=C1C(N(CO)C(=O)NCO)N(CO)C(=O)N1CO (centres undefined) [Diazolidinyl urea] 0.505

Give the measured Euclidean distance for CCN(CC)C(=O)/C(C#N)=C/c1cc(O)c(O)c([N+](=O)[O-])c1 [Entacapone] 0.512

Give the measured Euclidean distance for COc1cc(N2CCC(N)CC2)ccc1Nc1ncc(Cl)c(-c2c[nH]c3ccccc23)n1 3.34

Give the measured Euclidean distance for CNC[C@H](O)[C@@H](O)[C@H](O)[C@H](O)CO [Meglumine] 1.75

Give the measured Euclidean distance for O=C(Nc1cccc2cccnc12)c1ccc(N2C(=O)[C@@H]3[C@H](C2=O)[C@@H]2C=C[C@H]3C2)cc1 [IWR-1-endo] 1.06

Give the measured Euclidean distance for O=C1NS(=O)(=O)c2ccccc21 [Saccharin] 0.449

Give the measured Euclidean distance for C=CC(=O)Nc1cc(Nc2nccc(-c3cn(C)c4ccccc34)n2)c(OC)cc1N(C)CCN(C)C [Osimertinib (AZD9291)] 4.24

----------
Tested on: 786-O
Experiment: Euclidean distance of Cell Painting phenotypic profile (signed KS, 77 features) to DMSO centroid (dimensionless distance); 5 or 10 uM (library dependent); higher = stronger phenotypic change vs DMSO (phenoactivity)
Details: 48 h
Structures can show the parent of a compound that is named as a salt.
So I've got a bunch of molecules here, and I need their Euclidean distance values.
Please reply with the number alone, leaving off any unit.

Give the measured Euclidean distance for CCC1=C(C)CN(C(=O)NCCc2ccc(S(=O)(=O)NC(=O)N[C@H]3CC[C@H](C)CC3)cc2)C1=O [Glimepiride] 1.39

Give the measured Euclidean distance for C[C@@H](O[C@H]1OCCN(Cc2nn(P(=O)(O)O)c(=O)[nH]2)[C@H]1c1ccc(F)cc1)c1cc(C(F)(F)F)cc(C(F)(F)F)c1 [Fosaprepitant dimeglumine salt] 1.86

Give the measured Euclidean distance for CC1OC2(CS1)CN1CCC2CC1 (centres undefined) 1.52

Give the measured Euclidean distance for CNS(=O)(=O)CCc1ccc2[nH]cc(C3CCN(C)CC3)c2c1 1.48

----------
Tested on: 786-O
Test: Euclidean distance of Cell Painting phenotypic profile (signed KS, 77 features) to DMSO centroid (dimensionless distance); 5 or 10 uM (library dependent); higher = stronger phenotypic change vs DMSO (phenoactivity)
Details: 48 h
So I've got a bunch of compounds here, and I need their Euclidean distance values.
Please reply with the number alone, leaving off any unit.

Give the measured Euclidean distance for O=C(Oc1ccccc1C(=O)O)c1ccccc1O 0.578

Give the measured Euclidean distance for N[C@@H](Cc1c[nH]c2ccccc12)C(=O)O 0.689

Give the measured Euclidean distance for OC[C@@H](O)CN1CCN(c2ccccc2)CC1 1.23

Give the measured Euclidean distance for C=C[C@]1(C)C[C@@H](OC(=O)CS[C@@H]2C[C@H]3CC[C@@H](C2)N3C)[C@]2(C)[C@H](C)CC[C@]3(CCC(=O)[C@H]32)[C@@H](C)[C@@H]1O 1.44
